tested on: P388; test: Maximum % T/C against P-388 murine leukemia cells in mice.; format: functional, Mus musculus
OBSERVABLE: T/C (%)
Response body: numeric value in %, unit text excluded.

The examples below pair each entry with its known result.
COC12[C@@H]3N[C@@H]3CN1C1=C(C(=O)C(N3CC3C(N)=O)=C(C)C1=O)[C@@H]2COC(N)=O (some centres undefined)	206
COC12[C@@H]3N[C@@H]3CN1C1=C(C(=O)C(N3CCCCC3)=C(C)C1=O)[C@@H]2COC(N)=O (some centres undefined)	183
COC12[C@@H]3N[C@@H]3CN1C1=C(C(=O)C(N3CCN(C)CC3)=C(C)C1=O)[C@@H]2COC(N)=O (some centres undefined)	261

# next molecule below
Ask: Return the recorded T/C value; entry: COC12[C@@H]3N[C@@H]3CN1C1=C(C(=O)C(N3CC3C#N)=C(C)C1=O)[C@@H]2COC(N)=O (some centres undefined)
Reply: 339

// data source = ChEMBL document CHEMBL1122452
